Tested on: 786-0
assay.protocol: NCI 60 cell line five dose, Renal Cancer
reported.conditions: read-out: LC50, molar

[
  {
    "mol.smiles": "C=C1C(=O)O[C@H]2[C@H]1CC/C(COC(=O)NCCCCCCCCNC(=O)OC/C1=C/CC[C@@]3(C)O[C@H]3[C@H]3OC(=O)C(=C)[C@@H]3CC1)=C\\CC[C@@]1(C)O[C@@H]21",
    "target.desc": "786-0",
    "CC50 (nM)": 2930
  }
]

====

Known CC50 of a selection of molecules
Tested on: CCRF-CEM

[
  {
    "mol.smiles": "C=C1C(=O)O[C@H]2[C@H]1CC/C(COC(=O)CCC(=O)NCCCCCCCCNC(=O)CCC(=O)OC/C1=C/CC[C@@]3(C)O[C@H]3[C@H]3OC(=O)C(=C)[C@@H]3CC1)=C\\CC[C@@]1(C)O[C@@H]21",
    "CC50": "> 100 µM"
  },
  {
    "mol.smiles": "C=C1C(=O)O[C@H]2[C@H]1CC/C(COC(=O)CCC(=O)NCCCCCCCCCNC(=O)CCC(=O)OC/C1=C/CC[C@@]3(C)O[C@H]3[C@H]3OC(=O)C(=C)[C@@H]3CC1)=C\\CC[C@@]1(C)O[C@@H]21",
    "CC50": "> 100 µM"
  }
]
